As shown below, each of these compounds has a reported Transcripts per million (rpm) value.
- Tested on: L. acidophilus NCFM
- EXPERIMENTAL PROTOCOL: RNA-seq transcriptional analysis of L. acidophilus NCFM growing on plant glycosides
- Assay type: cell-based, Lactobacillus acidophilus
- APPLIED CONDITIONS: LBA1481 D-ribose-binding protein precursor, COG G
READOUT NAME: Transcripts per million (rpm)

[[record]]
smiles_notation = "O=c1ccc2cc(O[C@@H]3O[C@H](CO)[C@@H](O)[C@H](O)[C@H]3O)c(O)cc2o1"
target_or_test_system = "L. acidophilus NCFM"
meas_value = 9.2

[[record]]
smiles_notation = "OC[C@H]1O[C@@H](O[C@H]2[C@H](O)[C@@H](O)[C@@H](O)O[C@@H]2CO)[C@H](O)[C@@H](O)[C@H]1O"
target_or_test_system = "L. acidophilus NCFM"
meas_value = 8.1

[[record]]
smiles_notation = "N#C[C@H](O[C@@H]1O[C@H](CO[C@@H]2O[C@H](CO)[C@@H](O)[C@H](O)[C@H]2O)[C@@H](O)[C@H](O)[C@H]1O)c1ccccc1"
target_or_test_system = "L. acidophilus NCFM"
meas_value = 33

[[record]]
smiles_notation = "OCc1ccccc1O[C@@H]1O[C@H](CO)[C@@H](O)[C@H](O)[C@H]1O"
target_or_test_system = "L. acidophilus NCFM"
meas_value = 6.4

